System: SF-539
Assay: NCI tumour cell line growth inhibition, 48 h
Active and inactive are the calls of the source. Cut-off read from the data, not from the text of the source: active = GI50 up to about 1.1 µM and inactive = higher.
Outcome field: choose from active, inactive

[
  {
    "MOLECULE": "COc1cc2c(c(OC)c1)/C(=C/Sc1ccccc1)C(=O)N(C(C)(C)C)C2",
    "LABEL": "inactive"
  },
  {
    "MOLECULE": "CCCCCC(/C=C/[C@@H]1CC(=O)C[C@H]1O[Si](C)(C)C(C)(C)C)OCOCCOC (some centres undefined)",
    "LABEL": "inactive"
  },
  {
    "MOLECULE": "CNC(=O)N(CCC#N)CCN(C(=O)NC)c1ccccc1",
    "LABEL": "inactive"
  },
  {
    "MOLECULE": "NCc1ccccc1C1CSCSC1",
    "LABEL": "inactive"
  },
  {
    "MOLECULE": "Cc1cc(S(=O)(=O)Nc2nc(N)n[nH]2)c(S)cc1Cl",
    "LABEL": "inactive"
  }
]

Status in this test for "O=C1NC(=O)C(c2c[nH]c3cc(Br)ccc23)=C1c1cn(C(c2ccccc2)(c2ccccc2)c2ccccc2)cn1" ?
inactive

Status in this test for "Cc1ccc2c(C(=O)c3c(C)n(CCN4CCOCC4)c4ccccc34)cccc2c1" ?
active

====

Each entry below carries its recorded GI50.
Test system: SNB-78
Experiment: NCI tumour cell line growth inhibition, 48 h
Active and inactive are the calls of the source. No stated cut-off is given here; in the data, active = GI50 up to about 1.1 µM and inactive = higher.

[
  {
    "COMPOUND": "COc1cc(CC(C)N)ccc1O (centres undefined)",
    "GI50": "> 100 µM (inactive)"
  },
  {
    "COMPOUND": "Nc1ncnc2c1ncn2C1C=C(CO)C(O)C1O (centres undefined)",
    "GI50": "30.9 µM (inactive)"
  },
  {
    "COMPOUND": "CC(C)(C)c1cc(C(OCCl)(C(F)(F)F)C(F)(F)F)c2c(c1)C(C(F)(F)F)(C(F)(F)F)OC21c2ccccc2C(=O)c2ccccc21",
    "GI50": "> 100 µM (inactive)"
  }
]

Now look at this one.
compound "[N-]=[N+]=N[C@H]1C[C@@H](CO)O[C@H]1n1cnc2c(N)ncnc21" , GI50 observed: > 100 µM (inactive)

====

Test system: M14
Assay: NCI tumour cell line growth inhibition, 48 h
Active and inactive are the calls of the source. Rule as the data show it: active = GI50 up to about 1.1 µM and inactive = higher.
Each entry below carries its recorded GI50.

Record COc1ccc(C[C@@H]2OC3(C=CC(=O)CC3Sc3ccccc3)O[C@H]2Cc2ccc(OC)cc2)cc1 (some centres undefined) / M14, GI50 recorded as 1.16 µM (inactive)

Record CC(C)C1OC2(C)OC(=N)C1(C#N)C(C#N)(C#N)C2C (centres undefined) / M14, GI50 recorded as 14.6 µM (inactive)

Record "CS/C1=C(\c2ccc(C)cc2)N(c2ccccc2)C(=O)C(=O)N(c2ccccc2)/C(c2ccc(C)cc2)=C(/SC)SS1" / M14, GI50 recorded as 82.8 µM (inactive)

Record CCOC(=O)C(Cc1ccc([N+](=O)[O-])cc1)NC(=O)CC1c2ccccc2-c2ccccc21 (centres undefined) / M14, GI50 recorded as 22.9 µM (inactive)

Record CCOc1cc(C2SCC(=O)N2c2nc3cc4sc(N5C(=O)CSC5c5ccc(O)c(OCC)c5)nc4cc3s2)ccc1O (centres undefined) / M14, GI50 recorded as > 100 µM (inactive)

Record CC1(C)OC2C(O)CN3CCS[C@H]3C2O1 (some centres undefined) / M14, GI50 recorded as > 100 µM (inactive)

Record "Cc1ccc(/C=N/NS(=O)(=O)c2ccccc2)c(C)c1" / M14, GI50 recorded as > 100 µM (inactive)

Record "C=CCN(C(=O)OC(C)(C)C)[C@H](C)C(=O)N[C@@H](C)C(=O)OC" / M14, GI50 recorded as > 100 µM (inactive)

Record "Cc1c2c(c(C)c3c1[nH]c1ccccc13)CN(C)CC2" / M14, GI50 recorded as 15.1 µM (inactive)
